Values from ChEMBL document CHEMBL2413072

Tested on: T47D
assay.text: Growth inhibition of human T47D cells assessed as growth inhibition at 10 uM by sulforhodamine B assay
Assay type: functional
condition.parameters: read-out: GI
measure: inhibition of growth at 10 µM (%)

1. CC1(C)C[C@@H](O)[C@]2(C(=O)O)CC[C@]3(C)C(=CC[C@@H]4[C@@]5(C)C/C(=C\C=C\c6ccccc6)C(=O)C(C)(C)[C@@H]5CC[C@]43C)[C@@H]2C1 ... 62.4
2. CC(C)=CC(=O)O[C@@H]1CC(C)(C)C[C@H]2C3=CC[C@@H]4[C@@]5(C)CC[C@H](O)C(C)(C)[C@@H]5CC[C@@]4(C)[C@]3(C)CC[C@@]12C(=O)O [Reduced Lantadene B] ... 13.3
3. CC(C)=CC(=O)O[C@@H]1CC(C)(C)C[C@H]2C3=CC[C@@H]4[C@@]5(C)CCC(=O)C(C)(C)[C@@H]5CC[C@@]4(C)[C@]3(C)CC[C@@]12C(=O)O ... 38.4
4. C/C=C(/C)C(=O)O[C@@H]1CC(C)(C)C[C@H]2C3=CC[C@@H]4[C@@]5(C)CCC(=O)C(C)(C)[C@@H]5CC[C@@]4(C)[C@]3(C)CC[C@@]12C(=O)O [LANTADENE A] ... 36.1
5. C/C=C(/C)C(=O)O[C@@H]1CC(C)(C)C[C@H]2C3=CC[C@@H]4[C@@]5(C)CC[C@H](O)C(C)(C)[C@@H]5CC[C@@]4(C)[C@]3(C)CC[C@@]12C(=O)O [Reduced Lantadene A] ... 24.3
6. CC1(C)C[C@@H](O)[C@]2(C(=O)O)CC[C@]3(C)C(=CC[C@@H]4[C@@]5(C)CCC(=O)C(C)(C)[C@@H]5CC[C@]43C)[C@@H]2C1 ... 19.2
7. COc1cc(/C=C2\C[C@]3(C)[C@H]4CC=C5[C@@H]6CC(C)(C)C[C@@H](O)[C@]6(C(=O)O)CC[C@@]5(C)[C@]4(C)CC[C@H]3C(C)(C)C2=O)ccc1O ... 18.9

###

Test system: UACC-62
assay.text: Growth inhibition of human UACC62 cells by sulforhodamine B assay
Assay type: functional
condition.parameters: read-out: pGI50 (converted)
Strictly below 2000 nM in GI50: true (1). Otherwise: false (0).

1) C/C=C(/C)C(=O)O[C@@H]1CC(C)(C)C[C@H]2C3=CC[C@@H]4[C@@]5(C)CC[C@H](O)C(C)(C)[C@@H]5CC[C@@]4(C)[C@]3(C)CC[C@@]12C(=O)O ... true (1)
2) C/C=C(/C)C(=O)O[C@@H]1CC(C)(C)C[C@H]2C3=CC[C@@H]4[C@@]5(C)CCC(=O)C(C)(C)[C@@H]5CC[C@@]4(C)[C@]3(C)CC[C@@]12C(=O)O ... true (1)
3) CC1(C)C[C@@H](O)[C@]2(C(=O)O)CC[C@]3(C)C(=CC[C@@H]4[C@@]5(C)C/C(=C\C=C\c6ccccc6)C(=O)C(C)(C)[C@@H]5CC[C@]43C)[C@@H]2C1 ... true (1)
4) CC(C)=CC(=O)O[C@@H]1CC(C)(C)C[C@H]2C3=CC[C@@H]4[C@@]5(C)CCC(=O)C(C)(C)[C@@H]5CC[C@@]4(C)[C@]3(C)CC[C@@]12C(=O)O ... false (0)

###

Let's look at some compounds and their measured TGI.
System: SF-539
assay.text: Growth inhibition of human SF539 cells by sulforhodamine B assay
Format: functional
condition.parameters: read-out: TGI
measure: TGI (µM)

1. CC1(C)C[C@@H](O)[C@]2(C(=O)O)CC[C@]3(C)C(=CC[C@@H]4[C@@]5(C)C/C(=C\C=C\c6ccccc6)C(=O)C(C)(C)[C@@H]5CC[C@]43C)[C@@H]2C1 ... 10.6
2. C/C=C(/C)C(=O)O[C@@H]1CC(C)(C)C[C@H]2C3=CC[C@@H]4[C@@]5(C)CC[C@H](O)C(C)(C)[C@@H]5CC[C@@]4(C)[C@]3(C)CC[C@@]12C(=O)O ... 11.4
3. CC(C)=CC(=O)O[C@@H]1CC(C)(C)C[C@H]2C3=CC[C@@H]4[C@@]5(C)CC[C@H](O)C(C)(C)[C@@H]5CC[C@@]4(C)[C@]3(C)CC[C@@]12C(=O)O ... 36.2
4. CC(C)=CC(=O)O[C@@H]1CC(C)(C)C[C@H]2C3=CC[C@@H]4[C@@]5(C)CCC(=O)C(C)(C)[C@@H]5CC[C@@]4(C)[C@]3(C)CC[C@@]12C(=O)O ... 24.2

###

Test system: HCT-116
assay.text: Growth inhibition of human HCT116 cells by sulforhodamine B assay
Format: functional
condition.parameters: read-out: LC50
measure: LC50 (µM)

1) C/C=C(/C)C(=O)O[C@@H]1CC(C)(C)C[C@H]2C3=CC[C@@H]4[C@@]5(C)CC[C@H](O)C(C)(C)[C@@H]5CC[C@@]4(C)[C@]3(C)CC[C@@]12C(=O)O ... 65
2) CC(C)=CC(=O)O[C@@H]1CC(C)(C)C[C@H]2C3=CC[C@@H]4[C@@]5(C)CC[C@H](O)C(C)(C)[C@@H]5CC[C@@]4(C)[C@]3(C)CC[C@@]12C(=O)O ... 50.2
3) CC1(C)C[C@@H](O)[C@]2(C(=O)O)CC[C@]3(C)C(=CC[C@@H]4[C@@]5(C)C/C(=C\C=C\c6ccccc6)C(=O)C(C)(C)[C@@H]5CC[C@]43C)[C@@H]2C1 ... 82.7

###

Test system: HT-29
assay.text: Growth inhibition of human HT-29 cells by sulforhodamine B assay
Assay type: functional
condition.parameters: read-out: pLC50 (converted)
measure: LC50 (50% cell kill) (µM)

1) CC1(C)C[C@@H](O)[C@]2(C(=O)O)CC[C@]3(C)C(=CC[C@@H]4[C@@]5(C)C/C(=C\C=C\c6ccccc6)C(=O)C(C)(C)[C@@H]5CC[C@]43C)[C@@H]2C1 ... 33.1
2) C/C=C(/C)C(=O)O[C@@H]1CC(C)(C)C[C@H]2C3=CC[C@@H]4[C@@]5(C)CC[C@H](O)C(C)(C)[C@@H]5CC[C@@]4(C)[C@]3(C)CC[C@@]12C(=O)O [Reduced Lantadene A] ... 8.71

###

Tested on: LOX IMVI
assay.text: Growth inhibition of human LOXIMVI cells by sulforhodamine B assay
Format: functional
condition.parameters: read-out: GI50
Strictly below 3 µM in GI50: condition met. Otherwise: condition not met.

1) CC1(C)C[C@@H](O)[C@]2(C(=O)O)CC[C@]3(C)C(=CC[C@@H]4[C@@]5(C)C/C(=C\C=C\c6ccccc6)C(=O)C(C)(C)[C@@H]5CC[C@]43C)[C@@H]2C1 ... condition met
2) C/C=C(/C)C(=O)O[C@@H]1CC(C)(C)C[C@H]2C3=CC[C@@H]4[C@@]5(C)CC[C@H](O)C(C)(C)[C@@H]5CC[C@@]4(C)[C@]3(C)CC[C@@]12C(=O)O [Reduced Lantadene A] ... condition not met
3) C/C=C(/C)C(=O)O[C@@H]1CC(C)(C)C[C@H]2C3=CC[C@@H]4[C@@]5(C)CCC(=O)C(C)(C)[C@@H]5CC[C@@]4(C)[C@]3(C)CC[C@@]12C(=O)O [LANTADENE A] ... condition not met
4) CC(C)=CC(=O)O[C@@H]1CC(C)(C)C[C@H]2C3=CC[C@@H]4[C@@]5(C)CCC(=O)C(C)(C)[C@@H]5CC[C@@]4(C)[C@]3(C)CC[C@@]12C(=O)O ... condition not met
5) CC(C)=CC(=O)O[C@@H]1CC(C)(C)C[C@H]2C3=CC[C@@H]4[C@@]5(C)CC[C@H](O)C(C)(C)[C@@H]5CC[C@@]4(C)[C@]3(C)CC[C@@]12C(=O)O [Reduced Lantadene B] ... condition not met

###

Let's look at some compounds and their measured GI50.
Tested on: KM12
assay.text: Growth inhibition of human KM12 cells by sulforhodamine B assay
Type: functional
condition.parameters: read-out: pGI50 (converted)
measure: GI50 (nM)

1) CC(C)=CC(=O)O[C@@H]1CC(C)(C)C[C@H]2C3=CC[C@@H]4[C@@]5(C)CCC(=O)C(C)(C)[C@@H]5CC[C@@]4(C)[C@]3(C)CC[C@@]12C(=O)O ... 871
2) CC(C)=CC(=O)O[C@@H]1CC(C)(C)C[C@H]2C3=CC[C@@H]4[C@@]5(C)CC[C@H](O)C(C)(C)[C@@H]5CC[C@@]4(C)[C@]3(C)CC[C@@]12C(=O)O ... 871
3) C/C=C(/C)C(=O)O[C@@H]1CC(C)(C)C[C@H]2C3=CC[C@@H]4[C@@]5(C)CCC(=O)C(C)(C)[C@@H]5CC[C@@]4(C)[C@]3(C)CC[C@@]12C(=O)O ... 3550
4) C/C=C(/C)C(=O)O[C@@H]1CC(C)(C)C[C@H]2C3=CC[C@@H]4[C@@]5(C)CC[C@H](O)C(C)(C)[C@@H]5CC[C@@]4(C)[C@]3(C)CC[C@@]12C(=O)O ... 1350
5) CC1(C)C[C@@H](O)[C@]2(C(=O)O)CC[C@]3(C)C(=CC[C@@H]4[C@@]5(C)C/C(=C\C=C\c6ccccc6)C(=O)C(C)(C)[C@@H]5CC[C@]43C)[C@@H]2C1 ... 3020
